- Tested on: A375
- measurementProtocol: Compounds cellular killing in A375
- Assay type: cell-based, human
- conditionNotes: Homo sapiens, A-375; A375, 6 days, Cell Titer-Glo
Could you please report measured EC50 for the items listed next?
One number for each entry, in nM.

Could you report EC50 for every entry in the following list?
1. CC[C@@]1(O)C(=O)OCc2c1cc1n(c2=O)Cc2c-1nc1cc3c(c4c1c2[C@@H](NC(=O)CO)CC4)OCO3
2. CC[C@@]1(O)C(=O)OCc2c1cc1n(c2=O)Cc2c-1nc1cc(F)c(C)c3c1c2C(OCCO)CC3 (single isomer, unassigned)
3. CC[C@@]1(O)C(=O)OCc2c1cc1n(c2=O)Cc2c-1nc1cc(F)c(C)c3c1c2[C@@H](N(C)CCO)CC3
4. CC[C@@]1(O)C(=O)OCc2c1cc1n(c2=O)Cc2c-1nc1cc(F)c(C)c3c1c2[C@@H](NC(=O)OCCO)CC3
5. CC[C@@]1(O)C(=O)OCc2c1cc1n(c2=O)Cc2c-1nc1cc(F)c(C)c3c1c2[C@@H](NC(=O)NCCO)CC3

## Result
1. 10.2
2. 1.3
3. 0.9
4. 1.4
5. 18.6

====

- Tested on: A375
- measurementProtocol: Compounds cellular killing in A375
- Assay type: cell-based, human
- conditionNotes: Homo sapiens, A-375, […], A375, 6 days, Cell Titer-Glo
- Procedure: Seeding cells A375 (1E3/well) or Calu-6 (2E3/well) into 96-well plate (Greiner: 655090), 100 ul/well. Incubation at 37° C., 5% CO2, overnight. Adding the fresh growth-medium containing the varying concentrations of compounds, 50 ul/well. Incubation at 37° C., 5% CO2, 6 days. The cell viability detected by Cell Titer-Glo (Promega, G7573). Add 70 µL/well of CellTiter-Glo® Reagent in each well. […] Analyze with Microplate Reader. […]
Counter-ions that a name gives are not always drawn.
Could you please report measured Emax for the items listed next?
One number for each entry, in %.

Observe how each entry below is paired with its result.
CC[C@@]1(O)C(=O)OCc2c1cc1n(c2=O)Cc2c-1nc1cc(O)cc3c1c2[C@@H](N)CC3 [Example 1-24, methanesulfonate]
96
CC[C@@]1(O)C(=O)OCc2c1cc1n(c2=O)Cc2c-1nc1cc(F)c(C)c3c1c2C(CCCN)CC3 (stereo partly drawn) [Example 2-42, formate]
99.6

We now examine a further compound.
## Task Give the reported Emax for CC[C@@]1(O)C(=O)OCc2c1cc1n(c2=O)Cc2c-1nc1cc(F)c(C)c3c1c2[C@@H](NC(=O)C1CCCC1O)CC3 (single isomer, unassigned) [Example 2-9] (system: A375).
## Result 100

====

- Test system: A375
- measurementProtocol: Compounds cellular killing in A375
- Format: cell-based, human
- conditionNotes: Homo sapiens, A-375, […], A375, 6 days, Cell Titer-Glo
Counter-ions that a name gives are not always drawn.
Could you please report measured Emax for the items listed next?
One number for each entry, in %.

Observe how each entry below is paired with its result.
CC[C@@]1(O)C(=O)OCc2c1cc1n(c2=O)Cc2c-1nc1cc(F)cc3c1c2[C@@H](NC(=O)CO)CC3
98.9
CC[C@@]1(O)C(=O)OCc2c1cc1n(c2=O)Cc2c-1nc1cc(F)c(Cl)c3c1c2[C@@H](NC(=O)C(C)(C)CO)CC3
98.9

## Task Quick one: Emax of CC[C@@]1(O)C(=O)OCc2c1cc1n(c2=O)Cc2c-1nc1cc3c(c4c1c2[C@@H](N)CC4)OC(F)(F)O3 [Example 1-16, 2,2,2-trifluoroacetate salt] ?
## Result 98.5

Where these numbers come from: patent US20250295798A1
